The origin of these recorded values is paper PMC9389372.

Entries annotated with measured inhibition at 0.1 µM
MEASURED_TARGET: beta amyloid 1–42 (Aβ42) (Homo sapiens)
TEST_SUMMARY: fluorometric beta amyloid 1–42
Assay type: biochemical
CONDITION_SUMMARY: read-out: Percent inhibition of beta amyloid 1–42 (Aβ42) peptide aggregation
Use % as the unit, but write only the number.

CPD_SMILES: CN(C)CCN1CCN(Cc2ccc(C(=O)Nc3nc4ccccc4s3)cc2)CC1
READOUT_KIND: inhibition at 0.1 µM
VALUE_REPORTED: 80.8
//
CPD_SMILES: C#CCN1CCN(Cc2ccc(C(=O)Nc3nc4cc(OC)ccc4s3)cc2)CC1
READOUT_KIND: inhibition at 0.1 µM
VALUE_REPORTED: 48.9
//
CPD_SMILES: CN1CCN(Cc2ccc(C(=O)Nc3nc4ccccc4s3)cc2)CC1
READOUT_KIND: inhibition at 0.1 µM
VALUE_REPORTED: 70.4

// fetch inhibition at 0.1 µM given entry "COc1ccc2sc(NC(=O)c3ccc(CN4CCN(CCN(C)C)CC4)cc3)nc2c1"
72.5

// fetch inhibition at 0.1 µM given entry "COc1ccc2sc(NC(=O)c3ccc(CN4CCN(C)CC4)cc3)nc2c1"
64.8

// fetch inhibition at 0.1 µM given entry "C#CCN1CCN(Cc2ccc(C(=O)Nc3nc4ccccc4s3)cc2)CC1"
55.2

---

MEASURED_TARGET: beta amyloid 1–42 (Aβ42) (Homo sapiens, UniProt P05067)
Sequence (P05067 672-713): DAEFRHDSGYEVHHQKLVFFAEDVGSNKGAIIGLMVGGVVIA
TEST_SUMMARY: fluorometric beta amyloid 1–42
Type: biochemical
CONDITION_SUMMARY: read-out: Percent inhibition of beta amyloid 1–42 (Aβ42) peptide aggregation
READOUT_KIND: inhibition at 1 µM (%)
Use % as the unit, but write only the number.

Here's what some known entries look like.
CPD_SMILES: CN(C)CCN1CCN(Cc2ccc(C(=O)Nc3nc4ccccc4s3)cc2)CC1
inhibition at 1 µM [%]: 90.6
--
CPD_SMILES: COc1ccc2sc(NC(=O)c3ccc(CN4CCN(CCN(C)C)CC4)cc3)nc2c1
inhibition at 1 µM [%]: 88.9
--
CPD_SMILES: CN1CCN(Cc2ccc(C(=O)Nc3nc4ccccc4s3)cc2)CC1
inhibition at 1 µM [%]: 86.4
--
CPD_SMILES: C#CCN1CCN(Cc2ccc(C(=O)Nc3nc4cc(OC)ccc4s3)cc2)CC1
inhibition at 1 µM [%]: 77.7
--
CPD_SMILES: COc1ccc2sc(NC(=O)c3ccc(CN4CCN(C)CC4)cc3)nc2c1
inhibition at 1 µM [%]: 83.2

Here is another compound to look at.
// fetch inhibition at 1 µM given entry "C#CCN1CCN(Cc2ccc(C(=O)Nc3nc4ccccc4s3)cc2)CC1"
81.5

---

As a worked illustration, we turn to IC50 data collected for Human acetylcholinesterase (Homo sapiens, UniProt P22303).
Use nM as the unit, but write only the number.

CPD_SMILES: C#CCN1CCN(Cc2ccc(C(=O)Nc3nc4cc(OC)ccc4s3)cc2)CC1
VALUE_REPORTED: 102

Here is another compound to look at.
// fetch IC50 given entry "COc1ccc2sc(NC(=O)c3ccc(CN4CCN(CCCN(C)C)CC4)cc3)nc2c1"
42.1

---

MEASURED_TARGET: human butyrylcholinesterase (Homo sapiens)
Sequence (P06276 29-602): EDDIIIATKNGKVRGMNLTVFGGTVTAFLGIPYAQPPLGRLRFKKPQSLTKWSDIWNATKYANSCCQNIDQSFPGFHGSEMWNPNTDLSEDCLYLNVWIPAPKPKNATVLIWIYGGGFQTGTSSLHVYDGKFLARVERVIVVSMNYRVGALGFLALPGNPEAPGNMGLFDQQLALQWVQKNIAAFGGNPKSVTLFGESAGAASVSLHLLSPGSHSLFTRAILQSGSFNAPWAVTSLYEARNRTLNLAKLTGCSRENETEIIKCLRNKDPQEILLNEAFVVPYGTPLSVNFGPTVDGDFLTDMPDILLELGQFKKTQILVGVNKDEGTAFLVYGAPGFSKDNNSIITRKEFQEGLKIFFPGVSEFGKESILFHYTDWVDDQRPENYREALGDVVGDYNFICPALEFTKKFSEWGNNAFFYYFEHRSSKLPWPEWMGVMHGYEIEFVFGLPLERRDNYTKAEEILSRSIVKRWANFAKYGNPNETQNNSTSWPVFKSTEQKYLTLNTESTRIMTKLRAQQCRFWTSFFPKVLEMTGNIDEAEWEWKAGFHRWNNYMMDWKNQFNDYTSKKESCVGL
TEST_SUMMARY: BChE inhibition, modified Ellman's spectrophotometric method
Assay type: biochemical
CONDITION_SUMMARY: read-out: BChE % inhibition
# binarize inhibition at 1000 µM: threshold 40% inclusive, high side 1, low side 0

CPD_SMILES: CN1CCN(Cc2ccc(C(=O)Nc3nc4ccccc4s3)cc2)CC1
ANSWER_LABEL: 0

Could you please find out whether "CCN1CCN(Cc2ccc(C(=O)Nc3nc4ccccc4s3)cc2)CC1" has inhibition at 1000 µM that meets 40% or exceeds it?
0

Could you please find out whether "CN(C)CCCN1CCN(Cc2ccc(C(=O)Nc3nc4ccccc4s3)cc2)CC1" has inhibition at 1000 µM that meets 40% or exceeds it?
1

Could you please find out whether "C#CCN1CCN(Cc2ccc(C(=O)Nc3nc4ccccc4s3)cc2)CC1" has inhibition at 1000 µM that meets 40% or exceeds it?
0
